As shown below, each of these compounds has a reported pIC50 value.
# Assayed target: Protein kinase C gamma type (Homo sapiens)
# pIC50: negative log10 of molar concentration; output just the value

* C=C(C)[C@@H]1CC[C@]2(C(=O)O)CC[C@]3(C)[C@H](CC[C@@H]4[C@@]5(C)CC[C@H](OC(=O)c6ccccc6)C(C)(C)[C@@H]5CC[C@]43C)[C@@H]12 | 4.13

Ask: What pIC50 value was documented for this compound, `C=C(C)[C@@H]1CC[C@]2(C(=O)O)CC[C@]3(C)[C@H](CC[C@@H]4[C@@]5(C)CC[C@H](OS(=O)(=O)O)C(C)(C)[C@@H]5CC[C@]43C)[C@@H]12` ?
Reply: 4.43

----------
# Assayed target: Protein kinase C epsilon type (Homo sapiens, UniProt Q02156)
# Sequence (Q02156 whole entry): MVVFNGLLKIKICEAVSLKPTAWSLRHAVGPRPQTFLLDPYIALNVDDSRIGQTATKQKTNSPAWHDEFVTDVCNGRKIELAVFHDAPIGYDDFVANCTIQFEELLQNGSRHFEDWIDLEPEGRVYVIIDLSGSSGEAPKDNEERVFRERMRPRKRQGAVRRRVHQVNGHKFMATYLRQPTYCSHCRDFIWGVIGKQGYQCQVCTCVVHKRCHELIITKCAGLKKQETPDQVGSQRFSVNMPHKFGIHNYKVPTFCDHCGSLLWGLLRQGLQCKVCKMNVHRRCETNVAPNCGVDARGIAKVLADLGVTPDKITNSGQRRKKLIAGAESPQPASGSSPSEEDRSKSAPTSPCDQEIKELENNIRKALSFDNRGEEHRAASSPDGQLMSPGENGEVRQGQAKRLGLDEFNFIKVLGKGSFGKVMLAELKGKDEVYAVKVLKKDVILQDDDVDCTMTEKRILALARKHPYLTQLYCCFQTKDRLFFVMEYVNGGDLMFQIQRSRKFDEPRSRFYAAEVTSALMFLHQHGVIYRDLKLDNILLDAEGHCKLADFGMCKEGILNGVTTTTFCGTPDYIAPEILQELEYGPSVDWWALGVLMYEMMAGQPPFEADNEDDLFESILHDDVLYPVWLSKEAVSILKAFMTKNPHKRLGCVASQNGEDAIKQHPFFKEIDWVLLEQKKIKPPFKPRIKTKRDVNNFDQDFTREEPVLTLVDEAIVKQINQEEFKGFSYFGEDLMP
pIC50: −log10 of the molar value.
Experimental readout: pIC50

Guide cases for pIC50, answers given:
- Cc1cn([C@H]2C[C@H](N=[N+]=[N-])[C@@H](CO)O2)c(=O)[nH]c1=O [ZIDOVUDINE]: < 3.82
- CC(=O)[C@@H]1CC[C@]2(C(=O)O)CC[C@]3(C)[C@H](CC[C@@H]4[C@@]5(C)CC[C@H](O)C(C)(C)[C@@H]5CC[C@]43C)[C@@H]12 [PLATANIC ACID]: < 3.82

Ask: What pIC50 value was documented for this compound, `C=C(C)[C@@H]1CC[C@]2(C(=O)O)CC[C@]3(C)[C@H](CC[C@@H]4[C@@]5(C)CC[C@H](OC(=O)/C=C/C)C(C)(C)[C@@H]5CC[C@]43C)[C@@H]12` ?
Reply: < 3.82

Ask: Same question for C=C(C)[C@@H]1CC[C@]2(CO)CC[C@]3(C)[C@H](CC[C@@H]4[C@@]5(C)CC[C@H](O)C(C)(C)[C@@H]5CC[C@]43C)[C@@H]12 [BETULIN] please.
Reply: < 3.82

Ask: Same question for `C=C(C)[C@@H]1CC[C@]2(C(=O)O)CC[C@]3(C)[C@H](CC[C@@H]4[C@@]5(C)CC[C@H](OC(=O)c6ccccc6)C(C)(C)[C@@H]5CC[C@]43C)[C@@H]12` please.
Reply: < 3.82

Ask: Same question for CC(C)[C@@H]1CC[C@]2(C(=O)O)CC[C@]3(C)C(CCC4[C@@]5(C)CC[C@H](O)C(C)(C)C5CC[C@]43C)C12 (stereo not given in full) [DIHYDROBETULINIC ACID] please.
Reply: < 3.82

Ask: Same question for `C=C(C)[C@@H]1CC[C@]2(C(=O)O)CC[C@]3(C)[C@H](CC[C@@H]4[C@@]5(C)CC[C@H](OC(C)=O)C(C)(C)[C@@H]5CC[C@]43C)[C@@H]12` please.
Reply: < 3.82

Ask: Same question for `C=C(C)[C@@H]1CC[C@]2(C(=O)O)CC[C@]3(C)[C@H](CC[C@@H]4[C@@]5(C)CC[C@H](OS(=O)(=O)O)C(C)(C)[C@@H]5CC[C@]43C)[C@@H]12` please.
Reply: < 3.82

Ask: Same question for `C=C(C)[C@@H]1CC[C@]2(C(=O)O)CC[C@]3(C)[C@H](CC[C@@H]4[C@@]5(C)CC[C@H](OC(=O)CCC(=O)O)C(C)(C)[C@@H]5CC[C@]43C)[C@@H]12` please.
Reply: < 3.82

Ask: Same question for C=C(C)[C@@H]1CC[C@]2(C(=O)O)CC[C@]3(C)[C@H](CC[C@@H]4[C@@]5(C)CC[C@H](O)C(C)(C)[C@@H]5CC[C@]43C)[C@@H]12 [BETULINIC ACID] please.
Reply: < 3.82

----------
Entries with reported pIC50 on Protein kinase C beta type (Homo sapiens, UniProt P05771)
Sequence (P05771 whole entry): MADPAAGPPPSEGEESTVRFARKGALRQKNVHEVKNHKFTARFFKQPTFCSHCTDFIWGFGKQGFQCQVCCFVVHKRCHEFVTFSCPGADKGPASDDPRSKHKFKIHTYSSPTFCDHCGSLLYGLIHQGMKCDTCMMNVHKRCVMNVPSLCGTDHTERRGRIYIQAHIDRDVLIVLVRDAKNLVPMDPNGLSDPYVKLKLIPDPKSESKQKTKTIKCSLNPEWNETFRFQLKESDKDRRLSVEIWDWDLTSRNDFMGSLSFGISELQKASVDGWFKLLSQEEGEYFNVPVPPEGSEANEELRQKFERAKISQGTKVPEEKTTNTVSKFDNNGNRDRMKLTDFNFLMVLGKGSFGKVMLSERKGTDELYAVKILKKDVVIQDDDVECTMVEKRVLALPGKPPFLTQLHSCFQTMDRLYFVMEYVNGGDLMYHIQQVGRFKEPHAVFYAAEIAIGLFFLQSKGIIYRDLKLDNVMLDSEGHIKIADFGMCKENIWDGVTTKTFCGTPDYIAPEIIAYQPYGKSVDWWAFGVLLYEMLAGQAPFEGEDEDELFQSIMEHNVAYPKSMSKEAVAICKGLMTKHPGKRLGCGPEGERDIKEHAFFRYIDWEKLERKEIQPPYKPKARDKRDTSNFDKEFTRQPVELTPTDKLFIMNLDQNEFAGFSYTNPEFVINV
pIC50: −log10 of the molar value.

Guide cases for pIC50, answers given:
* C=C(C)[C@@H]1CC[C@]2(C(=O)O)CC[C@]3(C)[C@H](CC[C@@H]4[C@@]5(C)CC[C@H](OC(C)=O)C(C)(C)[C@@H]5CC[C@]43C)[C@@H]12 | < 3.82
* C=C(C)[C@@H]1CC[C@]2(C(=O)O)CC[C@]3(C)[C@H](CC[C@@H]4[C@@]5(C)CC[C@H](OC(=O)c6ccccc6)C(C)(C)[C@@H]5CC[C@]43C)[C@@H]12 | < 3.82

Ask: Give the reported pIC50 for `C=C(C)[C@@H]1CC[C@]2(C(=O)O)CC[C@]3(C)[C@H](CC[C@@H]4[C@@]5(C)CC[C@H](OS(=O)(=O)O)C(C)(C)[C@@H]5CC[C@]43C)[C@@H]12` (system: Protein kinase C beta type (Homo sapiens, UniProt P05771)).
Reply: < 3.82

Ask: Same question for `C=C(C)[C@@H]1CC[C@]2(C(=O)O)CC[C@]3(C)[C@H](CC[C@@H]4[C@@]5(C)CC[C@H](O)C(C)(C)[C@@H]5CC[C@]43C)[C@@H]12` please.
Reply: < 3.82

----------
# Assay remarks: Therapeutic index, IC50 for human H9 cells to EC50 for HIV1 3B
# Type: cell-based
# Condition summary: read-out: Ratio IC50/EC50
Experimental readout: selectivity ratio
Enter the number alone.

Guide cases for selectivity ratio, answers given:
• C=C(C)[C@@H]1CC[C@]2(C(=O)O)CC[C@]3(C)[C@H](CC[C@@H]4[C@@]5(C)CC[C@H](OS(=O)(=O)O)C(C)(C)[C@@H]5CC[C@]43C)[C@@H]12 = 1.7
• C=C(C)[C@@H]1CC[C@]2(C(=O)O)CC[C@]3(C)[C@H](CC[C@@H]4[C@@]5(C)CC[C@H](OC(=O)CCC(=O)O)C(C)(C)[C@@H]5CC[C@]43C)[C@@H]12 = 4
• C=C(C)[C@@H]1CC[C@]2(C(=O)O)CC[C@]3(C)[C@H](CC[C@@H]4[C@@]5(C)CC[C@H](OC(=O)/C=C/C)C(C)(C)[C@@H]5CC[C@]43C)[C@@H]12 = 2.5
• C=C(C)[C@@H]1CC[C@]2(C(=O)OCC(=O)OC)CC[C@]3(C)[C@H](CC[C@@H]4[C@@]5(C)CC[C@H](O)C(C)(C)[C@@H]5CC[C@]43C)[C@@H]12 = 1.5
• C=C(C)[C@@H]1CC[C@]2(C(=O)O)CC[C@]3(C)[C@H](CC[C@@H]4[C@@]5(C)CC[C@H](OC(=O)c6ccccc6)C(C)(C)[C@@H]5CC[C@]43C)[C@@H]12 = 1

Ask: What selectivity ratio value was documented for this compound, `C=C(C)[C@@H]1CC[C@]2(C(=O)O)CC[C@]3(C)[C@H](CC[C@@H]4[C@@]5(C)CC[C@H](OC(C)=O)C(C)(C)[C@@H]5CC[C@]43C)[C@@H]12` ?
Reply: 0.8

Ask: Same question for `C=C(C)[C@@H]1CC[C@]2(CO)CC[C@]3(C)[C@H](CC[C@@H]4[C@@]5(C)CC[C@H](O)C(C)(C)[C@@H]5CC[C@]43C)[C@@H]12` please.
Reply: 1.9

Ask: Same question for CC(C)[C@@H]1CC[C@]2(C(=O)O)CC[C@]3(C)C(CCC4[C@@]5(C)CC[C@H](O)C(C)(C)C5CC[C@]43C)C12 (some centres undefined) [DIHYDROBETULINIC ACID] please.
Reply: 14

Ask: Same question for `CC(=O)[C@@H]1CC[C@]2(C(=O)O)CC[C@]3(C)[C@H](CC[C@@H]4[C@@]5(C)CC[C@H](O)C(C)(C)[C@@H]5CC[C@]43C)[C@@H]12` please.
Reply: 13
